biological target: human TLR2 (Homo sapiens); construct: expressed in transfected cells; host or cells: HEK-Blue hTLR2 cells; test: Activation of human TLR2 III: HEK-Blue hTLR2 dose response (SEAP reporter); assay type: cell-based; details: HEK-Blue hTLR2; 500 pg/mL; read-out: Fold Induction (ratio of average induced value to average non-induced value)
# Lookup of reported fold induction at 0.0005 µg/mL keyed by entry
// no unit, no text: just the number

compound	fold induction at 0.0005 µg/mL
CCCCCCCCCCCCCCC(C)C(=O)OCC[C@H](CSC[C@H](N)C(=O)N[C@@H](CO)C(=O)NCCOCCOCCOCCOCCOCCOCCOCCOCCOCCOCCOCCOCCOCCOCCOCCOCCOCCOCCOCCOCCOCCOCCOCCOCCOCCOCCOCCOCCC(=O)NCC(N)=O)OC(=O)C(C)CCCCCCCCCCCCCC (stereo partly shown) [Compound B12]	33.9

Any idea what its fold induction at 0.0005 µg/mL is? The compound is CCCCCCCCCCCCCCC(C)C(=O)OC[C@H](CSC[C@H](N)C(=O)N[C@@H](CO)C(=O)NCCOCCOCCOCCOCCOCCOCCOCCOCCOCCOCCOCCOCCOCCOCCOCCOCCOCCOCCOCCOCCOCCOCCOCCOCCOCCOCCOCCOCCC(=O)NCC(N)=O)OC(=O)C(C)CCCCCCCCCCCCCC (stereo partly shown) [Compound B4]
36.3

Query CCCCCCCCCCCCCC[C@@H](C)C(=O)OCC[C@H](CSC[C@H](N)C(=O)N[C@@H](CO)C(=O)NCCOCCOCCOCCOCCOCCOCCOCCOCCOCCOCCOCCOCCOCCOCCOCCOCCOCCOCCOCCOCCOCCOCCOCCOCCOCCOCCOCCOCCC(=O)NCC(N)=O)OC(=O)[C@H](C)CCCCCCCCCCCCCC [Compound B14] next
33.9

Query CCCCCCCCCCCCCC[C@H](C)C(=O)OCC[C@H](CSC[C@H](N)C(=O)N[C@@H](CO)C(=O)NCCOCCOCCOCCOCCOCCOCCOCCOCCOCCOCCOCCOCCOCCOCCOCCOCCOCCOCCOCCOCCOCCOCCOCCOCCOCCOCCOCCOCCC(=O)NCC(N)=O)OC(=O)[C@@H](C)CCCCCCCCCCCCCC [Compound B16] next
34.4

---

target: human TLR2 (Homo sapiens, UniProt O60603); construct: expressed in transfected cells; host or cells: HEK-Blue hTLR2 cells; experiment: Activation of human TLR2 III: HEK-Blue hTLR2 dose response (SEAP reporter); type: cell-based; conditions: HEK-Blue hTLR2; 0.12 pg/mL; read-out: Fold Induction (ratio of average induced value to average non-induced value)
Sequence (O60603 21-784): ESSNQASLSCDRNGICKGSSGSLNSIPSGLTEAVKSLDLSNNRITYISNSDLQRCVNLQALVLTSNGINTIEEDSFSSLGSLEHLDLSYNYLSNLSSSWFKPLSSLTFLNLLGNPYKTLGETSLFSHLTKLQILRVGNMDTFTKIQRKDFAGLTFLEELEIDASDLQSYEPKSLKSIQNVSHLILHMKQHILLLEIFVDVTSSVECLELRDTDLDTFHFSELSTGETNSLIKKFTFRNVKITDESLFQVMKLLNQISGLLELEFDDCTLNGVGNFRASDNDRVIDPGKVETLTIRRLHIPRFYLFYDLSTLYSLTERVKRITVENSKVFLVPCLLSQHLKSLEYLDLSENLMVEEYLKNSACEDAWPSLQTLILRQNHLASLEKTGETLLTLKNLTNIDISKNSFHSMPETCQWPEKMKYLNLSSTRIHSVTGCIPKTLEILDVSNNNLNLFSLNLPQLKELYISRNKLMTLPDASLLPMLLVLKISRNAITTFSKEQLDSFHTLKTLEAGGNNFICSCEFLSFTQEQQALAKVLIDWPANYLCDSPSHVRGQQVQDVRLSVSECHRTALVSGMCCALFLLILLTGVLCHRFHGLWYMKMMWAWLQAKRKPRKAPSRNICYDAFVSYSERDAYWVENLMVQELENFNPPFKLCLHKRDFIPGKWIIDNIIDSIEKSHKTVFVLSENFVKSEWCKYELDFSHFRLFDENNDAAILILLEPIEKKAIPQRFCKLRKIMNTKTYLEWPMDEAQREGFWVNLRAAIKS
Sequence (Q9Y2C9 32-796 partner): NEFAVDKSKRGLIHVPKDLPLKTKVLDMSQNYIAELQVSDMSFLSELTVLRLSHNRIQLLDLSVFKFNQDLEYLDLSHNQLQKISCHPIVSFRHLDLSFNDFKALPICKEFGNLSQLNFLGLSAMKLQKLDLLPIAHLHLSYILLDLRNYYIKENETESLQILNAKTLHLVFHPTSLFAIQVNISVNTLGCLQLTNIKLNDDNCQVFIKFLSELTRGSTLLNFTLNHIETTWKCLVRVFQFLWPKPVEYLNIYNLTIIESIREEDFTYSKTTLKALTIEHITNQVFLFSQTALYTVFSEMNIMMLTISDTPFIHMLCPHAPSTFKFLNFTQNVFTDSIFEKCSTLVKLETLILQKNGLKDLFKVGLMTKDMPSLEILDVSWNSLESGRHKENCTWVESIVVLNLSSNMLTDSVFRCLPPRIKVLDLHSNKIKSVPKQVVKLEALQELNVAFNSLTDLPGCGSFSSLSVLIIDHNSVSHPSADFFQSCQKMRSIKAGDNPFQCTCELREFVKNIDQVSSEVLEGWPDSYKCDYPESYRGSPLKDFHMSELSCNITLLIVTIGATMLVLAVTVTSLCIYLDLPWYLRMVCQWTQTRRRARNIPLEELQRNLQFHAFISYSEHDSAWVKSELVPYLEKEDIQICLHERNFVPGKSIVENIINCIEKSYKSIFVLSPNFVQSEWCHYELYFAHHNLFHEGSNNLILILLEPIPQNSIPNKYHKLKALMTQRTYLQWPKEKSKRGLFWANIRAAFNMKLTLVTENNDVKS
# Lookup of reported fold induction at 120 fg/mL keyed by entry
// no unit, no text: just the number

Below: 3 molecules and their reported fold induction at 120 fg/mL.
molecule	fold induction at 120 fg/mL
CCCCCCCCCCCCCC[C@@H](C)C(=O)OCC[C@H](CSC[C@H](N)C(=O)N[C@@H](CO)C(=O)NCCOCCOCCOCCOCCOCCOCCOCCOCCOCCOCCOCCOCCOCCOCCOCCOCCOCCOCCOCCOCCOCCOCCOCCOCCOCCOCCOCCOCCC(=O)NCC(N)=O)OC(=O)[C@H](C)CCCCCCCCCCCCCC	18.7
CCCCCCCCCCCCCCC(C)C(=O)OC[C@H](CSC[C@H](N)C(=O)N[C@@H](CO)C(=O)NCCOCCOCCOCCOCCOCCOCCOCCOCCOCCOCCOCCOCCOCCOCCOCCOCCOCCOCCOCCOCCOCCOCCOCCOCCOCCOCCOCCOCCC(=O)NCC(N)=O)OC(=O)C(C)CCCCCCCCCCCCCC (stereo partly shown)	10.3
CCCCCCCCCCCCCC[C@H](C)C(=O)OCC[C@H](CSC[C@H](N)C(=O)N[C@@H](CO)C(=O)NCCOCCOCCOCCOCCOCCOCCOCCOCCOCCOCCOCCOCCOCCOCCOCCOCCOCCOCCOCCOCCOCCOCCOCCOCCOCCOCCOCCOCCC(=O)NCC(N)=O)OC(=O)[C@@H](C)CCCCCCCCCCCCCC	9.2

What is its fold induction at 120 fg/mL for human TLR2 (Homo sapiens, UniProt O60603)? Entry: CCCCCCCCCCCCCCC(C)C(=O)OCC[C@H](CSC[C@H](N)C(=O)N[C@@H](CO)C(=O)NCCOCCOCCOCCOCCOCCOCCOCCOCCOCCOCCOCCOCCOCCOCCOCCOCCOCCOCCOCCOCCOCCOCCOCCOCCOCCOCCOCCOCCC(=O)NCC(N)=O)OC(=O)C(C)CCCCCCCCCCCCCC (stereo partly shown)
18.7

---

molecular target: human TLR2 (Homo sapiens); construct: expressed in transfected cells; host or cells: HEK-Blue hTLR2 cells; test: Activation of human TLR2 III: HEK-Blue hTLR2 dose response (SEAP reporter); type: cell-based; details: 0.12 pg/mL
propertyMeasured: Average optical density (650 nm)
// no unit, no text: just the number

Below: 3 compounds and their reported Average optical density (650 nm).
compound	Average optical density (650 nm)
CCCCCCCCCCCCCC[C@H](C)C(=O)OCC[C@H](CSC[C@H](N)C(=O)N[C@@H](CO)C(=O)NCCOCCOCCOCCOCCOCCOCCOCCOCCOCCOCCOCCOCCOCCOCCOCCOCCOCCOCCOCCOCCOCCOCCOCCOCCOCCOCCOCCOCCC(=O)NCC(N)=O)OC(=O)[C@@H](C)CCCCCCCCCCCCCC	0.666
CCCCCCCCCCCCCCC(C)C(=O)OCC[C@H](CSC[C@H](N)C(=O)N[C@@H](CO)C(=O)NCCOCCOCCOCCOCCOCCOCCOCCOCCOCCOCCOCCOCCOCCOCCOCCOCCOCCOCCOCCOCCOCCOCCOCCOCCOCCOCCOCCOCCC(=O)NCC(N)=O)OC(=O)C(C)CCCCCCCCCCCCCC (stereo partly shown)	1.362
CCCCCCCCCCCCCCC(C)C(=O)OC[C@H](CSC[C@H](N)C(=O)N[C@@H](CO)C(=O)NCCOCCOCCOCCOCCOCCOCCOCCOCCOCCOCCOCCOCCOCCOCCOCCOCCOCCOCCOCCOCCOCCOCCOCCOCCOCCOCCOCCOCCC(=O)NCC(N)=O)OC(=O)C(C)CCCCCCCCCCCCCC (stereo partly shown)	0.740

Now examine the next entry.
Any idea what its Average optical density (650 nm) is? The compound is CCCCCCCCCCCCCC[C@@H](C)C(=O)OCC[C@H](CSC[C@H](N)C(=O)N[C@@H](CO)C(=O)NCCOCCOCCOCCOCCOCCOCCOCCOCCOCCOCCOCCOCCOCCOCCOCCOCCOCCOCCOCCOCCOCCOCCOCCOCCOCCOCCOCCOCCC(=O)NCC(N)=O)OC(=O)[C@H](C)CCCCCCCCCCCCCC
0.823

---

molecular target: human TLR2 (Homo sapiens); construct: expressed in transfected cells; host or cells: HEK-Blue hTLR2 cells; experiment: Activation of human TLR2 III: HEK-Blue hTLR2 dose response (SEAP reporter); assay type: cell-based; conditions: HEK-Blue hTLR2; 125 pg/mL; read-out: Fold Induction (ratio of average induced value to average non-induced value)
# Lookup of reported fold induction at 0.000125 µg/mL keyed by entry

Below: 3 compounds and their reported fold induction at 0.000125 µg/mL.
compound	fold induction at 0.000125 µg/mL
CCCCCCCCCCCCCC[C@@H](C)C(=O)OCC[C@H](CSC[C@H](N)C(=O)N[C@@H](CO)C(=O)NCCOCCOCCOCCOCCOCCOCCOCCOCCOCCOCCOCCOCCOCCOCCOCCOCCOCCOCCOCCOCCOCCOCCOCCOCCOCCOCCOCCOCCC(=O)NCC(N)=O)OC(=O)[C@H](C)CCCCCCCCCCCCCC	35.2
CCCCCCCCCCCCCCC(C)C(=O)OCC[C@H](CSC[C@H](N)C(=O)N[C@@H](CO)C(=O)NCCOCCOCCOCCOCCOCCOCCOCCOCCOCCOCCOCCOCCOCCOCCOCCOCCOCCOCCOCCOCCOCCOCCOCCOCCOCCOCCOCCOCCC(=O)NCC(N)=O)OC(=O)C(C)CCCCCCCCCCCCCC (stereo partly shown)	35.2
CCCCCCCCCCCCCCC(C)C(=O)OC[C@H](CSC[C@H](N)C(=O)N[C@@H](CO)C(=O)NCCOCCOCCOCCOCCOCCOCCOCCOCCOCCOCCOCCOCCOCCOCCOCCOCCOCCOCCOCCOCCOCCOCCOCCOCCOCCOCCOCCOCCC(=O)NCC(N)=O)OC(=O)C(C)CCCCCCCCCCCCCC (stereo partly shown)	35

Now examine the next entry.
Any idea what its fold induction at 0.000125 µg/mL is? The compound is CCCCCCCCCCCCCC[C@H](C)C(=O)OCC[C@H](CSC[C@H](N)C(=O)N[C@@H](CO)C(=O)NCCOCCOCCOCCOCCOCCOCCOCCOCCOCCOCCOCCOCCOCCOCCOCCOCCOCCOCCOCCOCCOCCOCCOCCOCCOCCOCCOCCOCCC(=O)NCC(N)=O)OC(=O)[C@@H](C)CCCCCCCCCCCCCC
35.3

This collection of values is drawn from patent US20230278954A1.
